# System: PC-3 prostrate cell adenocarcinoma
# test.method.notes: Relative colony forming efficiency (Example 17, Table 13)
# Type: cell-based, human
# measurement.parameters: averages of 2-8 determinations
Oligonucleotides are written 5' to 3', each unit as a sugar letter and its base; * is a phosphorothioate linkage, no mark a phosphodiester; rarer units and linkages stand in square brackets, end groups in braces. Plain capitals give the bases only. d = 2'-deoxy (DNA)
test.readout: Reduced relative colony forming efficiency, PC-3 (% inhibition of colony forming ability) (%)

{"residues": "TTCTGGCAAAAGGTGATACT (antisense dT*dT*dC*dT*dG*dG*dC*dA*dA*dA*dA*dG*dG*dT*dG*dA*dT*dA*dC*dT) [AS-II-1538-20]", "result.value": 84.71}
{"residues": "TGTAAACCCTCATCTCTGCT (antisense dT*dG*dT*dA*dA*dA*dC*dC*dC*dT*dC*dA*dT*dC*dT*dC*dT*dG*dC*dT) [AS-II-981-20]", "result.value": 85.16}
{"residues": "TCAGCATCCAAGGTAAAAGA (antisense dT*dC*dA*dG*dC*dA*dT*dC*dC*dA*dA*dG*dG*dT*dA*dA*dA*dA*dG*dA) [AS-II-1338-20]", "result.value": 93.75}
{"residues": "TCCTCGCGGTCTTGCTGGCC (antisense dT*dC*dC*dT*dC*dG*dC*dG*dG*dT*dC*dT*dT*dG*dC*dT*dG*dG*dC*dC) [AS-II-323-20]", "result.value": 79.76}
{"residues": "ATTAAAATCTGCGTTGAAGC (antisense dA*dT*dT*dA*dA*dA*dA*dT*dC*dT*dG*dC*dG*dT*dT*dG*dA*dA*dG*dC) [AS-II-1700-20]", "result.value": 90.63}
{"residues": "ATGGAAAAAAAAAATCAGCC (antisense dA*dT*dG*dG*dA*dA*dA*dA*dA*dA*dA*dA*dA*dA*dT*dC*dA*dG*dC*dC) [AS-II-1390-20]", "result.value": 76.76}

---

# Test system: PC-3 prostrate cell adenocarcinoma
# test.method.notes: Relative colony forming efficiency (Example 17, Table 13)
# Assay type: cell-based, human
# measurement.parameters: averages of 2-8 determinations
Oligonucleotides are written 5' to 3', each unit as a sugar letter and its base; * is a phosphorothioate linkage, no mark a phosphodiester; rarer units and linkages stand in square brackets, end groups in braces. Plain capitals give the bases only. d = 2'-deoxy (DNA)
Documented Reduced relative colony forming efficiency, PC-3 (% inhibition of colony forming ability) across a set of substances
test.readout: Reduced relative colony forming efficiency, PC-3 (% inhibition of colony forming ability) (%)

{"substance": "CTGCTTTAGTTTTCGGCTCC (antisense dC*dT*dG*dC*dT*dT*dT*dA*dG*dT*dT*dT*dT*dC*dG*dG*dC*dT*dC*dC) [AS-II-362-20]", "result.value": 75.78}
{"substance": "AS-II-134220 (antisense dG*dA*dA*dG*dT*dC*dA*dG*dC*dA*dT*dC*dC*dA*dA*dG*dG*dT*dA*dA)", "result.value": 89.84}
{"substance": "TGGCTGTGCTGGTTAAAGGA (antisense dT*dG*dG*dC*dT*dG*dT*dG*dC*dT*dG*dG*dT*dT*dA*dA*dA*dG*dG*dA) [AS-II-1659-20]", "result.value": 81.56}
{"substance": "TCTGCCTTCTTCTTGACACA (antisense dT*dC*dT*dG*dC*dC*dT*dT*dC*dT*dT*dC*dT*dT*dG*dA*dC*dA*dC*dA) [AS-II-798-20]", "result.value": 83.21}
{"substance": "CGGGTCCGTGATGGGCGCGA (antisense dC*dG*dG*dG*dT*dC*dC*dG*dT*dG*dA*dT*dG*dG*dG*dC*dG*dC*dG*dA) [AS-II-217-20]", "result.value": 87.41}
{"substance": "TTTTAACTGGCTGTGCTGGT (antisense dT*dT*dT*dT*dA*dA*dC*dT*dG*dG*dC*dT*dG*dT*dG*dC*dT*dG*dG*dT) [AS-II-1666-20]", "result.value": 86.06}
{"substance": "AACCGGAAAAGAAAATGCCT (antisense dA*dA*dC*dC*dG*dG*dA*dA*dA*dA*dG*dA*dA*dA*dA*dT*dG*dC*dC*dT) [AS-II-890-20]", "result.value": 87.93}
{"substance": "GCATCCAAGGTAAAAGAATT (antisense dG*dC*dA*dT*dC*dC*dA*dA*dG*dG*dT*dA*dA*dA*dA*dG*dA*dA*dT*dT) [AS-II-1335-20]", "result.value": 90.04}
{"substance": "CGGCGGCGTGTTCTCCTTGT (antisense dC*dG*dG*dC*dG*dG*dC*dG*dT*dG*dT*dT*dC*dT*dC*dC*dT*dT*dG*dT) [AS-II-280-20]", "result.value": 77.51}
{"substance": "GCGGCGGGGGTTTTCTCTCA (antisense dG*dC*dG*dG*dC*dG*dG*dG*dG*dG*dT*dT*dT*dT*dC*dT*dC*dT*dC*dA) [AS-II-412-20]", "result.value": 73.96}
{"substance": "GACGGCTGGGACAGGGTGCA (antisense dG*dA*dC*dG*dG*dC*dT*dG*dG*dG*dA*dC*dA*dG*dG*dG*dT*dG*dC*dA) [AS-II-134-20]", "result.value": 77.51}
{"substance": "CGGCTCATCCTCCACGC (antisense dC*dG*dG*dC*dT*dC*dA*dT*dC*dC*dT*dC*dC*dA*dC*dG*dC) [AS-II-391-17]", "result.value": 93.25}

---

# Tested on: T24 bladder cell carcinoma
# test.method.notes: Relative colony forming efficiency (Example 17, Table 13)
# Format: cell-based, human
# measurement.parameters: averages of 2-8 determinations
Oligonucleotides are written 5' to 3', each unit as a sugar letter and its base; * is a phosphorothioate linkage, no mark a phosphodiester; rarer units and linkages stand in square brackets, end groups in braces. Plain capitals give the bases only. d = 2'-deoxy (DNA)
Documented Reduced relative colony forming efficiency, T24 (% inhibition of colony forming ability) across a set of substances
test.readout: Reduced relative colony forming efficiency, T24 (% inhibition of colony forming ability) (%)

{"substance": "TTAGTGGTCAGGAGAATGTA (antisense dT*dT*dA*dG*dT*dG*dG*dT*dC*dA*dG*dG*dA*dG*dA*dA*dT*dG*dT*dA) [AS-II-1819-20]", "unit.of.measurement": "%", "result.value": 53.74}
{"substance": "AAGCGGCGGGGGTTTTCTCT (antisense dA*dA*dG*dC*dG*dG*dC*dG*dG*dG*dG*dG*dT*dT*dT*dT*dC*dT*dC*dT) [AS-II-414-20]", "unit.of.measurement": "%", "result.value": 11.67}
{"substance": "ATCCAGCGCAAGGCCCAGTC (antisense dA*dT*dC*dC*dA*dG*dC*dG*dC*dA*dA*dG*dG*dC*dC*dC*dA*dG*dT*dC) [AS-II-816-20]", "unit.of.measurement": "%", "result.value": 73.91}
{"substance": "GCAGCGAAGCAGAGCGAGCA (antisense dG*dC*dA*dG*dC*dG*dA*dA*dG*dC*dA*dG*dA*dG*dC*dG*dA*dG*dC*dA) [AS-II-166-20]", "unit.of.measurement": "%", "result.value": 68.99}
{"substance": "TCCTTTATCCCACAACACTC (antisense dT*dC*dC*dT*dT*dT*dA*dT*dC*dC*dC*dA*dC*dA*dA*dC*dA*dC*dT*dC) [AS-II-2067-20]", "unit.of.measurement": "%", "result.value": 49.6}
{"substance": "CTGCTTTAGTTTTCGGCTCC (antisense dC*dT*dG*dC*dT*dT*dT*dA*dG*dT*dT*dT*dT*dC*dG*dG*dC*dT*dC*dC) [AS-II-362-20]", "unit.of.measurement": "%", "result.value": 89.63}
{"substance": "CAAATGGGTTCTCTACTCTG (antisense dC*dA*dA*dA*dT*dG*dG*dG*dT*dT*dC*dT*dC*dT*dA*dC*dT*dC*dT*dG) [AS-II-1217-20]", "unit.of.measurement": "%", "result.value": 66.36}
{"substance": "G*CC*TCCG*ACC*CTTC*CC*ATT*G (antisense dG*dCdC*dTdCdCdG*dAdCdC*dCdTdTdC*dCdC*dAdTdT*dG) [AS-II-13-20]", "unit.of.measurement": "%", "result.value": 18.99}
{"substance": "GGAAGATGACAAAGCGGCGG (antisense dG*dG*dA*dA*dG*dA*dT*dG*dA*dC*dA*dA*dA*dG*dC*dG*dG*dC*dG*dG) [AS-II-425-20]", "unit.of.measurement": "%", "result.value": 90.37}
{"substance": "GACATCACTCCCATCCTCTG (antisense dG*dA*dC*dA*dT*dC*dA*dC*dT*dC*dC*dC*dA*dT*dC*dC*dT*dC*dT*dG) [AS-II-1302-20]", "unit.of.measurement": "%", "result.value": 70.56}
{"substance": "AACTTCTTGGCTAAATCGCT (antisense dA*dA*dC*dT*dT*dC*dT*dT*dG*dG*dC*dT*dA*dA*dA*dT*dC*dG*dC*dT) [AS-II-634-20]", "unit.of.measurement": "%", "result.value": 83.52}
{"substance": "AGGACTGGTTGTGAGGTAGC (antisense dA*dG*dG*dA*dC*dT*dG*dG*dT*dT*dG*dT*dG*dA*dG*dG*dT*dA*dG*dC) [AS-II-1499-20]", "unit.of.measurement": "%", "result.value": 82.81}
